Target: PTP1B (Homo sapiens, UniProt P18031)
Sequence (P18031 1-435): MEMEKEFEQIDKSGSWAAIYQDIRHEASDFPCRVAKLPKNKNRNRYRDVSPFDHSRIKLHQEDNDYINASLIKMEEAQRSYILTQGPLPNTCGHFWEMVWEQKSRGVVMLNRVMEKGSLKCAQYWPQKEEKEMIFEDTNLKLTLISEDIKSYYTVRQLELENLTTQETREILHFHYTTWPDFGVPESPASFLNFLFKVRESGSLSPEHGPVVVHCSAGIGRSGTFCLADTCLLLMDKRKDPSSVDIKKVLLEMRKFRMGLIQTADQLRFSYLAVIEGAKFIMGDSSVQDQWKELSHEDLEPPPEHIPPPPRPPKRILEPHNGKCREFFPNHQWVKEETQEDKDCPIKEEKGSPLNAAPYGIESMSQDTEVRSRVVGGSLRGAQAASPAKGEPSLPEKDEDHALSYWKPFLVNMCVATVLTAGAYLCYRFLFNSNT
recorded_metric: IC50 (µM)

CCCc1nnc(N[C@@H](Cc2ccc(NS(=O)(=O)O)cc2)c2csc(-c3cccs3)n2)s1
4.71

A = COC(=O)Cc1nnc(N[C@@H](Cc2ccc(NS(=O)(=O)O)cc2)c2csc(-c3cccs3)n2)s1
B = O=S(=O)(O)Nc1ccc(C[C@H](Nc2nnc(Cc3ccccc3)s2)c2csc(-c3cccs3)n2)cc1
# compare IC50 for A vs B ; return the one with the smaller value I would appreciate it if you answered with the label of your choice.
A
